target-entity: purified liver bovine arginase (b-ARG I) (Bos taurus)
Construct: commercially-available purified bovine arginase (b-ARG I) instead of animal tissue; purchased MP Biomedicals; host or cells: bovine liver (enzyme purified from tissue)
Sequence (Q2KJ64 whole entry): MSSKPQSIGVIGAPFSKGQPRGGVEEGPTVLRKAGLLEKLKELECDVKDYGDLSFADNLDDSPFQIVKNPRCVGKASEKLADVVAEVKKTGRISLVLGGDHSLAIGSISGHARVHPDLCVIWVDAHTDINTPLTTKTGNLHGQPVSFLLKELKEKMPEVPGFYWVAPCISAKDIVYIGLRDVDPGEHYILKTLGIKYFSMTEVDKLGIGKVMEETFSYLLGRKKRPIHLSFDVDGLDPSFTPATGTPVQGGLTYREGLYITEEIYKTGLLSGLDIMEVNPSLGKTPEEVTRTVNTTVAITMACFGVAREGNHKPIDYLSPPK
assay-protocol: In vitro colorimetric microassay of arginase inhibition on purified bovine liver arginase
Assay type: biochemical
pIC50: −log10 of the molar value.
measured-endpoint: pIC50

molecule="O=C(O)/C=C/c1ccc(O)c(O)c1 [Caffeic acid, reference compound]" readout_number=4.06

----------
# inhibition at 100 µM per record follows
target-entity: purified liver bovine arginase (b-ARG I) (Bos taurus)
Construct: commercially-available purified bovine arginase (b-ARG I) instead of animal tissue; purchased MP Biomedicals; host or cells: bovine liver (enzyme purified from tissue)
assay-protocol: In vitro colorimetric microassay of arginase inhibition on purified bovine liver arginase;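 further: urea formed from L-arginine detected colorimetrically with alpha-isonitrosopropiophenone at 550 nm after 60 min at 37 °C, inhibition relative to solvent controls taken as 100% arginase activity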
Assay type: biochemical
conditions-used: 100 μM final concentration; three separate in-duplicate experiments; read-out: b-ARG I Inhibition (%) (100 μM)
measured-endpoint: inhibition at 100 µM (%)

compound=O=C(NCCc1ccc(O)cc1)c1ccc(O)c(O)c1 unit_abbrev=% readout_number=52
compound=O=C(/C=C/c1ccc(O)c(O)c1)NCCc1ccc(O)cc1 unit_abbrev=% readout_number=58
compound="O=C(/C=C/c1ccc(O)cc1)NCCc1ccccc1 [Compound 3, (E)-N-(2-Phenylethyl)-4-hydroxycinnamide]" unit_abbrev=% readout_number=31
compound="O=C(/C=C/c1ccccc1)NCCc1ccc(O)c(O)c1 [Compound 15, (E)-N-(3,4-Dihydroxyphenethyl)cinnamide]" unit_abbrev=% readout_number=68
compound=COc1cc(/C=C/C(=O)NCCc2ccc(O)cc2)cc(OC)c1OC unit_abbrev=% readout_number=30
compound=COc1cc(/C=C/C(=O)NCCc2ccccc2)cc(OC)c1OC unit_abbrev=% readout_number=35
compound=O=C(/C=C/c1ccc(O)cc1)NCCc1ccc(O)c(O)c1 unit_abbrev=% readout_number=54
compound=COc1cc(/C=C/C(=O)NCCc2ccc(O)c(O)c2)ccc1O unit_abbrev=% readout_number=61
compound=O=C(/C=C/c1ccc(O)c(O)c1)NCCc1ccc(O)c(O)c1 unit_abbrev=% readout_number=62
